Target: BEC 1 potassium channel (Homo sapiens, UniProt Q9ULD8)
Construct: expressed in transfected cells
Sequence (Q9ULD8 1-1083): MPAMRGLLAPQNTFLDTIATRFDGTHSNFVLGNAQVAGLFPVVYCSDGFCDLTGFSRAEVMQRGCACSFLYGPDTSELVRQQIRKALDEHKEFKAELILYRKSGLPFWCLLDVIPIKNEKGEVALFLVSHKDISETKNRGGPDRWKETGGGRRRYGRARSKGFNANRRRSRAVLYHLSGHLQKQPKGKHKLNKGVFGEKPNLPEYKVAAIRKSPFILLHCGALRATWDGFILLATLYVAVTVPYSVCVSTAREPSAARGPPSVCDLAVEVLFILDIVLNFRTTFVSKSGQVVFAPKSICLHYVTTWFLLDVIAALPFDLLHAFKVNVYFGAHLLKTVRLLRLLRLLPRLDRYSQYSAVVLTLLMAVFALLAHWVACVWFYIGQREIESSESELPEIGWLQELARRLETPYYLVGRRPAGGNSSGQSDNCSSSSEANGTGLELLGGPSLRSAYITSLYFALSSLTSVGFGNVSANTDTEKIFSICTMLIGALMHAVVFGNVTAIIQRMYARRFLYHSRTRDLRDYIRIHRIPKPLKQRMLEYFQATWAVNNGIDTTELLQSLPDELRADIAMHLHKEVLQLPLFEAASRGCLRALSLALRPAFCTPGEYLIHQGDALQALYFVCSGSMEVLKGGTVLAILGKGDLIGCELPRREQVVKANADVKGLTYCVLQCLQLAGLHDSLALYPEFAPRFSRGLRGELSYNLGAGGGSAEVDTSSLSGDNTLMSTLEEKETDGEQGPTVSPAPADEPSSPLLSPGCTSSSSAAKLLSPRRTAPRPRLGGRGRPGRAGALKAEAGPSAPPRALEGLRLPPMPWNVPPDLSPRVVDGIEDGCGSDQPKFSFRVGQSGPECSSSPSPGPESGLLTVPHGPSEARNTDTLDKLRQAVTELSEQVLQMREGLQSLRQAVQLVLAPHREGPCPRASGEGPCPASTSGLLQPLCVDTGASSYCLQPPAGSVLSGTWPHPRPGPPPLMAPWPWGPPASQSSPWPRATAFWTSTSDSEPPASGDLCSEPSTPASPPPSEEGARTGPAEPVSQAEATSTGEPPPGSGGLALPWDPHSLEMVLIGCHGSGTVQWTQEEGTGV
Experiment: BEC 1 inhibitory activity using released amount of 86Rb ions from BEC 1-expressing cells
Type: cell-based
Conditions: concentration of test compound is 3 μM; 86Rb ion release
quantity: Inhibition ratio (%)

Consider the following illustrative entries.
c1ccc(Nc2nc(Nc3ccccc3)nc(NC3CC3)n2)cc1 [compound 62]: 44
CCCNc1nc(Nc2ccccc2)nc(Nc2ccccc2)n1 [compound 54]: 64

I. CCNc1nc(Nc2ccccc2)nc(Nc2ccccc2)n1 [compound 53]
II. CNc1nc(Nc2ccccc2)nc(Nc2ccccc2)n1 [compound 52]
Query string: Which has the smaller recorded Inhibition ratio, I or II ? Kindly state the label of the option you pick.
Result string: II
(II: 31%, I: 59%)
